measured-on: 17-beta-hydroxysteroid dehydrogenase type 1 (Homo sapiens)
experimental-details: Compound was tested for the inhibition of 17-beta-hydroxysteroid dehydrogenase type 1(17-beta-HSD type 1) at 10 uM concentration
Decide using inhibition: a value greater than or equal to 80% is criterion met, a smaller one is criterion not met.

C[C@]12CC[C@@H]3c4ccc(O)cc4CC[C@H]3[C@@H]1C[C@@H](CCCSC#N)[C@@H]2O    criterion met

-- ask Kindly determine if inhibition recorded for CCC[C@@H]1C[C@H]2[C@@H]3CCc4cc(O)ccc4[C@H]3CC[C@]2(C)[C@H]1O is above or exactly 80%.
-- reply criterion not met

-- ask Kindly determine if inhibition recorded for C[C@]12CC[C@@H]3c4ccc(O)cc4CC[C@H]3[C@@H]1C[C@@H](CCCO)[C@@H]2O is above or exactly 80%.
-- reply criterion not met
